All figures here come from patent US12421224B2.

# tgt: Recombinant full length human OGA enzyme (Homo sapiens)
# Construct: Recombinant full length human OGA enzyme
# Sequence (O60502 whole entry): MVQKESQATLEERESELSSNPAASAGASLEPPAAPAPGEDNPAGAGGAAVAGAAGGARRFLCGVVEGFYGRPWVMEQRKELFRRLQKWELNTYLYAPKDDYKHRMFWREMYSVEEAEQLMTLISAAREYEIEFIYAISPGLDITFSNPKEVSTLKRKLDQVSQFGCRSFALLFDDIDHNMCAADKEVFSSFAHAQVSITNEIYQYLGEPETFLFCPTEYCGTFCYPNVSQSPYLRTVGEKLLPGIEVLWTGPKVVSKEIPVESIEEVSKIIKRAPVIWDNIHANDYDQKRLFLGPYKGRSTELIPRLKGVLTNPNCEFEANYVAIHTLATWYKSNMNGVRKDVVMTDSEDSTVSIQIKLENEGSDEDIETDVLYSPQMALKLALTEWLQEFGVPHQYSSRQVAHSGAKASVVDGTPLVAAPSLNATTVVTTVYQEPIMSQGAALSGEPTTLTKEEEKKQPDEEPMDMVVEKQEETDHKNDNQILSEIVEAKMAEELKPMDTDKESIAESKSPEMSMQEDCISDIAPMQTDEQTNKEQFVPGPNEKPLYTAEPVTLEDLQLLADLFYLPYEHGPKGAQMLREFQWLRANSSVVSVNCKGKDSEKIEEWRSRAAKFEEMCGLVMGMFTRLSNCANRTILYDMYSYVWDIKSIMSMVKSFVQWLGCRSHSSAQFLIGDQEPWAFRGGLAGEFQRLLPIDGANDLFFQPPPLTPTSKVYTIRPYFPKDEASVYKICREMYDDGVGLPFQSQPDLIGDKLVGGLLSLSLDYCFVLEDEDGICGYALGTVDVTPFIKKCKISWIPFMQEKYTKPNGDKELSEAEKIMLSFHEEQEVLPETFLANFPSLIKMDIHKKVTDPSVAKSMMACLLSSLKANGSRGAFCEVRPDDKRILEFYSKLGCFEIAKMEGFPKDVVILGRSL
# protocol_summary: OGA Enzyme Inhibition Biochemical Assay
# conditions_used: 1 nM OGA, 100 μM 4-MUGlcNAc (Km), pH 6.4, 90 minutes at room temperature, 10-point dose-response starting from 20 μM
pIC50: −log10 of the molar value.
measure: pIC50

Solved entries:
CC(=O)Nc1ncc(CN2CC(Oc3ccc(C#N)cn3)C2)s1 :: 6.47
CC(=O)Nc1ncc(CN2CC(NCc3cc(C)nc(C)c3)C2)s1 :: 7.04
CC(=O)Nc1ncc(CN2CC(COc3cc(C)nc(C)c3)C2)s1 :: 6.32

a: CC(=O)Nc1ncc(CN2CC(Oc3ncc(F)cn3)C2)s1
b: CC(=O)Nc1ncc(CN2CC(CNc3cc(C)nc(C)n3)C2)s1
Input: Please compare: a and b . Report which one has the smaller pIC50 value. # reply format: chosen label
Output: b
(b: 5.89, a: 6.28)

A: CC(=O)Nc1ncc(CN2C[C@@H](Nc3ccc(F)cn3)[C@H]2C)s1
B: CC(=O)Nc1ncc(CN2CC(Nc3ccc(C#N)cn3)C2)s1
C: CC(=O)Nc1ncc(CN2C[C@H](Nc3ccc(C#N)cn3)[C@H]2C)s1
D: CC(=O)Nc1ncc(CN2CC(CNc3cc(C)nc(C)c3)C2)s1
E: CC(=O)Nc1ncc(CN2C[C@H](Oc3ncc(F)cn3)[C@H]2C)s1 [Example 2-30]
Input: // smallest pIC50 at index 0, largest at the end Output spec: a listing of the labels in the requested order.
Output: D, A, E, B, C

I: COc1cc(N[C@@H]2CN(Cc3cnc(NC(C)=O)s3)[C@@H]2C)ccn1
II: COc1cc(COC2CN(Cc3cnc(NC(C)=O)s3)C2)ccn1
Input: Please compare: I and II . Report which one has the smaller pIC50 value. # reply format: chosen label
Output: I
(I: 6.24, II: 7.04)

A: COc1cc(OCC2CN(Cc3cnc(NC(C)=O)s3)C2)ccn1
B: COc1cc(O[C@@H]2CN(Cc3cnc(NC(C)=O)s3)[C@@H]2C)ccn1
Input: A or B : whose pIC50 is greater? # reply format: chosen label
Output: B
